System: Staphylococcus aureus
Test: Antibacterial activity against Staphylococcus aureus Smith by micro-broth dilution method
Assay type: functional
Settings: Staphylococcus aureus, Smith; read-out: MIC
Quick rule for you: MIC under 2 µg/mL gets yes (1), anything else gets no (0).

See these solved cases before continuing.
{"columns": ["molecule", "group-label"],
 "data": [
  ["COc1ccc2ncc(F)c(CC(OCC(=O)O)C34CCC(NCc5ccc6c(n5)NC(=O)CO6)(CC3)CO4)c2n1 (racemic)", "no (0)"],
  ["COc1ccc2ncc(F)c([C@H](O)[C@@H](O)C34CCC(NCc5ccc6c(n5)NC(=O)CO6)(CC3)CO4)c2n1 (single isomer, unassigned; (-))", "yes (1)"],
  ["COc1ccc2ncc(F)c(C/C(=N/O)C34CCC(NCc5ccc6c(n5)NC(=O)CO6)(CC3)CO4)c2n1", "no (0)"],
  ["CO/N=C(/Cc1c(F)cnc2ccc(OC)nc12)C12CCC(NCc3ccc4c(n3)NC(=O)CO4)(CC1)CO2", "no (0)"]
]}

API: query returns whether the molecule falls strictly under 2 µg/mL in MIC. Query: COc1ccc2ncc(F)c(C(=O)CC34CCC(NCc5ccc6c(n5)NC(=O)CO6)(CC3)CO4)c2n1
yes (1)
